# Tested on: SK-MEL-2
# assay name: NCI tumour cell line growth inhibition, 48 h
Activity calls are given as the source filed them. Rule as the data show it: active = GI50 up to about 1.1 µM and inactive = higher.
Measured GI50, listed per entry.

Answered examples (2):
>>> observed_result("O=CN1CCN(c2ccc3ccc(O)nc3n2)CC1")
"> 100 µM (inactive)"
>>> observed_result("O=S(OC12CC3CC(CC(C3)C1)C2)c1cc(Cl)cc(Cl)c1OCc1ccccc1 (configuration not stated)")
"> 100 µM (inactive)"

Notebook: CC1CC(NN)=Nc2ccccc2N1 (configuration not stated) , GI50 read as > 100 µM (inactive)

Notebook: N#CC1(C#N)C2C=CC(C3CC=CC32)C1(C#N)C#N (configuration not stated) , GI50 read as 13.1 µM (inactive)

Notebook: `O=C1OC(c2cccc(C(F)(F)F)c2)(c2cccc(C(F)(F)F)c2)c2ccc3ccccc3c21` , GI50 read as > 10 µM (inactive)

Notebook: `O=S(=O)(N/N=C/c1ccc(Cl)c(Cl)c1)c1ccccc1` , GI50 read as 34.2 µM (inactive)

Notebook: `S=C1NCCN1C(=S)Nc1ccccc1` , GI50 read as > 100 µM (inactive)

Notebook: `SC1=C2CCCCCC2=NC2(CCCCCC2)S1` , GI50 read as 6.3 µM (inactive)

Notebook: CCN1CCC(O)(c2ccc(Oc3ccc(C)cc3)cc2)C(C(=O)c2ccc(Oc3ccc(C)cc3)cc2)C1 (configuration not stated) , GI50 read as 18 µM (inactive)

Notebook: CC12NC(=C(C#N)C#N)C(C#N)=C3NC(N)=C(C#N)C(=C31)Oc1ccccc12 (configuration not stated) , GI50 read as 6.7 µM (inactive)

Notebook: COc1ccc(CC2NCCc3c2[nH]c2ccccc32)cc1 (configuration not stated) , GI50 read as > 100 µM (inactive)

Notebook: `CCC1(CC)C(=O)OC(=O)C1(CC)CC` , GI50 read as > 100 µM (inactive)

###

# Tested on: A549
# assay name: NCI tumour cell line growth inhibition, 48 h
Activity calls are given as the source filed them. Rule as the data show it: active = GI50 up to about 1.1 µM and inactive = higher.
Measured GI50, listed per entry.

Answered examples (5):
>>> observed_result("Cc1cc(S(=O)(=O)Nc2nc3cccnc3[nH]2)c(S)cc1Cl")
"75 µM (inactive)"
>>> observed_result("COc1ccc(CCN2C(=O)C=CC2=O)cc1OC")
"23 µM (inactive)"
>>> observed_result("COc1ccc(N2C(=O)C3c4[nH]c5c(C)cccc5c4C4CCC(C(C)C)CC4C3C2=O)cc1 (stereo not drawn)")
"5.41 µM (inactive)"
>>> observed_result("OC(C#CCN1CCCC1)(c1ccccc1)c1ccccc1Cl (stereo not drawn)")
"33.4 µM (inactive)"
>>> observed_result("CN1CCC2(CC1)/C(=N/C1CCCCC1)NC(=S)N2c1ccccc1")
"> 100 µM (inactive)"

Notebook: `CC(C)CC(=O)NC(Nc1ccc(S(=O)(=O)Nc2ncccn2)cc1)(C(F)(F)F)C(F)(F)F` , GI50 read as > 100 µM (inactive)

Notebook: CC(C)N(C(=O)C12C3C4C5C3C1(C(=O)O)C5C42)C(C)C (stereo not drawn) , GI50 read as > 100 µM (inactive)

Notebook: `CC1=C(C(=O)Nc2ccc(Cl)c(Cl)c2)C(c2ccc([N+](=O)[O-])cc2)C(C(=O)Nc2ccc(Cl)c(Cl)c2)=C(C)N1` , GI50 read as 2.82 µM (inactive)

###

# Test system: T47D
# assay name: NCI tumour cell line growth inhibition, 48 h
Active and inactive are the calls of the source. No stated cut-off is given here; in the data, active = GI50 up to about 1.1 µM and inactive = higher.
Measured GI50, listed per entry.

>>> observed_result("CCc1[nH]c(=O)nc(N)c1-c1ccc(N2CCCCC2)c([N+](=O)[O-])c1")
"> 100 µM (inactive)"
>>> observed_result("C/C(CC(O)(C(F)(F)F)C(F)(F)F)=N\\NC(N)=O")
"> 10 µM (inactive)"

// moving on: another record for GI50
Notebook: `C=C(C)c1cc(C(C)(C)C)cc(C(=C)C)c1S(C)(=O)=O` , GI50 read as 10.7 µM (inactive)

###

# System: SF-539
# assay name: NCI tumour cell line growth inhibition, 48 h
Active and inactive are the calls of the source. No stated cut-off is given here; in the data, active = GI50 up to about 1.1 µM and inactive = higher.
Answer with one of the outcomes given here: active, inactive

# count of solved cases: 5
>>> class_assignment("COc1ccc(/C=C2/SC(c3c(O)ccc4ccccc34)N(NC(=O)CCCCCCCCC(=O)NN3C(=O)/C(=C\\c4ccc(OC)c(OC)c4)SC3c3c(O)ccc4ccccc34)C2=O)cc1OC (stereo not given)")
"active"
>>> class_assignment("Brc1nc2c3ccccc3ncn2c1Br")
"inactive"
>>> class_assignment("CCOC(=O)c1csc(NC(=O)C(C)N2CCCC2)n1 (stereo not given)")
"inactive"
>>> class_assignment("CC(=O)c1cc2c3c(c1)c1cc4c(cc1c(=O)n3CC2)OCO4")
"inactive"
>>> class_assignment("Nc1ccn(C2CC(O)C(COP(=O)(S)OC3CC(n4ccc(N)nc4=O)OC3CO)O2)c(=O)n1 (stereo not given)")
"inactive"

[Q] Which result was noted for this compound in the test: `S=C(Nc1ccc2cn[nH]c2c1)Nc1ccc2cn[nH]c2c1`
[A] inactive

[Q] Which result was noted for this compound in the test: `COc1ccc(/C(Cl)=C(\C=O)c2ccc(Cl)c(Cl)c2)cc1`
[A] inactive

[Q] Which result was noted for this compound in the test: C[C@H](NC(=O)C(Cc1ccccc1)(Cc1ccc(O)cn1)NC(=O)c1ccccc1)c1ccccc1 (stereo not given in full)
[A] inactive

[Q] Which result was noted for this compound in the test: `c1ccc(/N=C2\c3ccccc3CN2c2ccccc2)cc1`
[A] inactive

[Q] Which result was noted for this compound in the test: COc1ccc2c(c1)CCCN1Cc3cc(OC)c(OC)cc3CC21 (stereo not given)
[A] inactive

[Q] Which result was noted for this compound in the test: `CCC(=O)NCC1(c2c[nH]c3ccccc23)SCCS1`
[A] inactive

###

# Test system: ACHN
# assay name: NCI tumour cell line growth inhibition, 48 h
Active and inactive are the calls of the source. Cut-off read from the data, not from the text of the source: active = GI50 up to about 1.1 µM and inactive = higher.
Answer with one of the outcomes given here: yes (1) (active), no (0) (inactive)

[Q] Which result was noted for this compound in the test: CC(C)N(C(=O)C12C3C4C5C3C1(C(=O)O)C5C42)C(C)C (configuration not stated)
[A] no (0)

[Q] Which result was noted for this compound in the test: `S=C(Nc1ccc2cn[nH]c2c1)Nc1ccc2cn[nH]c2c1`
[A] no (0)

[Q] Which result was noted for this compound in the test: `CN(C)CCn1c(=O)c2ccc(NCCCN(C)CCCNc3ccc4c(=O)n(CCN(C)C)c(=O)n5c6ccccc6c(=O)c3c45)c3c(=O)c4ccccc4n(c1=O)c23`
[A] yes (1)

###

Measured GI50, listed per entry.
# System: EKVX
# assay name: NCI tumour cell line growth inhibition, 48 h
Calls of active or inactive are those of the source. Cut-off read from the data, not from the text of the source: active = GI50 up to about 1.1 µM and inactive = higher.

Answered examples (3):
>>> observed_result("CCOC1=NC(=O)CC(c2ccccc2)S1 (centres undefined)")
"> 100 µM (inactive)"
>>> observed_result("COC(=O)/C(C#N)=C1\\CCC(Nc2cccc(C(F)(F)F)c2)N1C (centres undefined)")
"> 100 µM (inactive)"
>>> observed_result("O=c1[nH]nc(-c2ccccc2)n1/N=C/c1cccs1")
"83.6 µM (inactive)"

Notebook: CSc1c([S+](C)[O-])[nH]c2cc(Br)cc(Br)c12 (centres undefined) , GI50 read as 14.3 µM (inactive)

Notebook: `Cc1nc2ccc(S(=O)(=O)NS(=O)(=O)c3ccc(-c4ccccc4)cc3)cc2c(=O)n1NS(=O)(=O)c1ccc(-c2ccccc2)cc1` , GI50 read as 68.2 µM (inactive)

Notebook: C[N+]12C=CC=C1C(N1CCCC1)c1sc(-c3ccc(Cl)cc3)cc12 (centres undefined) , GI50 read as 22.6 µM (inactive)

Notebook: CC[C@@]1(O)CC(OC2CC(N3CCOCC3)C(O)C(C)O2)c2c(O)c3c(c(O)c2[C@H]1O)C(=O)c1cccc(O)c1C3=O (some centres undefined) , GI50 read as 0.318 µM (active)

Notebook: CC(=O)O[C@H]1C=CC(=O)C(C)CC1C (some centres undefined) , GI50 read as > 100 µM (inactive)

Notebook: `O=C(NCCCOC(=O)CCCCCCCCC(=O)OCCCNC(=O)NC(=O)c1c[nH]c(=O)[nH]c1=O)NC(=O)c1c[nH]c(=O)[nH]c1=O` , GI50 read as > 100 µM (inactive)

###

# System: Malme-3M
# assay name: NCI tumour cell line growth inhibition, 48 h
Active and inactive are the calls of the source. Cut-off read from the data, not from the text of the source: active = GI50 up to about 1.1 µM and inactive = higher.
Measured GI50, listed per entry.

Answered examples (2):
>>> observed_result("O=S(=O)(N/N=C/c1ccc(Cl)c(Cl)c1)c1ccccc1")
"> 100 µM (inactive)"
>>> observed_result("O=[N+]([O-])c1cc(C2ON=C(c3ccccc3)N2C23CC4CC(CC(C4)C2)C3)ccc1Cl (stereo not given)")
"> 100 µM (inactive)"

Notebook: `COc1cc(-c2cc(-c3ccccc3)nc(-c3c(OC)ccc4c(C)cc(=O)oc34)c2)cc(OC)c1OC` , GI50 read as > 100 µM (inactive)

Notebook: CCN1CCC(O)(/C=C/c2ccc(C(C)C)cc2)C(C(=O)/C=C/c2ccc(C(C)C)cc2)C1 (stereo not given) , GI50 read as 5.02 µM (inactive)

Notebook: `COC1(OC)C[C@H](C)[C@@]23O[C@]24C2=CC(=O)C=CC2=N[C@H]3C#C/C=C\C#C[C@]14O` , GI50 read as 0.671 µM (active)

Notebook: `COc1cc(C=O)cc(/C=N/c2ccc(Br)cc2)c1O` , GI50 read as 4.04 µM (inactive)

Notebook: CC12NC(=C(C#N)C#N)C(C#N)=C3NC(N)=C(C#N)C(=C31)Oc1ccccc12 (stereo not given) , GI50 read as 20.6 µM (inactive)

Notebook: CC1=NNC(=O)C1C1CC(c2c[nH]c3ccccc23)=NNC1=S (stereo not given) , GI50 read as > 100 µM (inactive)

Notebook: O=C(CCN1CCN2c3ccccc3CCC2C1)c1ccc(F)cc1 (stereo not given) , GI50 read as 25.1 µM (inactive)

Notebook: `COc1ccc(CCN2C(=O)C=CC2=O)cc1OC` , GI50 read as 13.8 µM (inactive)

Provenance of the data: ChEMBL document CHEMBL1201862
